The reported measurements were obtained from ChEMBL document CHEMBL1201862.

Tested on: UACC-62
Assay: NCI tumour cell line growth inhibition, 48 h
The source made the active and inactive calls. No stated cut-off is given here; in the data, active = GI50 up to about 1.1 µM and inactive = higher.
REPORTED_PROPERTY: GI50

- COMPOUND: "Cc1ccc(C)c(NC(=O)C(=O)C(c2cnc3ccc([N+](=O)[O-])cc3n2)[N+](=O)[O-])c1 (centres undefined)"
  REPORTED_PROPERTY: "GI50"
  ASSAY_VALUE: "64.1 µM (inactive)"
- COMPOUND: "CN(C)CCNC(=O)c1cccc2ccc(-c3ccc(F)cc3)nc12"
  REPORTED_PROPERTY: "GI50"
  ASSAY_VALUE: "3.95 µM (inactive)"
- COMPOUND: "CC1=C2C3=C(C)C(=O)C(C)(C)CC[C@@]3(C)[C@]2(C)CCC(C)(C)C1=O"
  REPORTED_PROPERTY: "GI50"
  ASSAY_VALUE: "> 100 µM (inactive)"
- COMPOUND: "CCOC(=O)[C@@H]1[C@@H]2NC(=O)N[C@@]1(C)Oc1ccccc12"
  REPORTED_PROPERTY: "GI50"
  ASSAY_VALUE: "> 100 µM (inactive)"
- COMPOUND: "N#CCCN(CCC#N)c1ccc(/C=N\\c2nc(-c3ccccc3)cs2)cc1"
  REPORTED_PROPERTY: "GI50"
  ASSAY_VALUE: "> 100 µM (inactive)"
- COMPOUND: "CC(C)(C)OC(=O)NCCC1CNc2ccccc21 (centres undefined)"
  REPORTED_PROPERTY: "GI50"
  ASSAY_VALUE: "> 100 µM (inactive)"
- COMPOUND: "O=c1[nH]c(=O)n(Cc2ccccc2CO)cc1Sc1ccccc1"
  REPORTED_PROPERTY: "GI50"
  ASSAY_VALUE: "31.3 µM (inactive)"
- COMPOUND: "O=C(CSc1nnc(Cc2ccccc2)o1)Nc1ccc(Cl)cc1[N+](=O)[O-]"
  REPORTED_PROPERTY: "GI50"
  ASSAY_VALUE: "14.2 µM (inactive)"
- COMPOUND: "CC(=O)O[C@H]1CC[C@@]2(C)C(=CC[C@@H]3[C@@H]2CC[C@]2(C)c4nc(N)c(C#N)cc4C[C@@H]32)C1"
  REPORTED_PROPERTY: "GI50"
  ASSAY_VALUE: "40.6 µM (inactive)"
